- tested on: HLA-A*31:01
- assay notes: IEDB peptide-MHC binding, purified MHC/direct/fluorescence; filed as Kd, often an IC50 or EC50 that approximates it; bounds were set here for any values at or beyond the usual limits of such assays
- test context: source organism: Marburg virus - Musoke, Kenya, 1980
pKd: −log10 of the molar value.
Each record here notes measured pKd.

NQQVTNSKY = ≤ 4.70

Please look at the following sequence next.
State its pKd: `ARHGEYAPF`
≤ 4.70

###

- tested on: HLA-A*24:03
- assay notes: IEDB peptide-MHC binding, purified MHC/direct/fluorescence; filed as Kd, often an IC50 or EC50 that approximates it; bounds were set here for any values at or beyond the usual limits of such assays
- test context: source organism: Choclo virus
pKd: −log10 of the molar value.
test readout: pKd

State its pKd: `LRYGNVLDV`
≤ 4.70

###

- tested on: HLA-B*15:17
- assay notes: IEDB peptide-MHC binding, purified MHC/direct/fluorescence; filed as Kd, often an IC50 or EC50 that approximates it; bounds were set here for any values at or beyond the usual limits of such assays
- test context: source organism: dengue virus type 2
test readout: pKd
pKd is defined as minus the log10 of a concentration measured in mol/L.

State the measured pKd (HLA-B*15:17) of `ITAAAWYLW`
8.17

###

- tested on: HLA-A*30:01
- assay notes: IEDB peptide-MHC binding, purified MHC/competitive/fluorescence; filed as Kd, often an IC50 or EC50 that approximates it; bounds were set here for any values at or beyond the usual limits of such assays
- test context: source organism: Giardia lamblia ATCC 50803
test readout: Kd

State its Kd: `QLKQRDALF`
≥ 20 µM

###

- tested on: HLA-A*02:01
- assay notes: IEDB peptide-MHC binding, purified MHC/competitive/radioactivity; filed as Kd, often an IC50 or EC50 that approximates it; bounds were set here for any values at or beyond the usual limits of such assays
- test context: source organism: Trypanosoma cruzi
test readout: pKd
pKd is defined as minus the log10 of a concentration measured in mol/L.

State its pKd: `HVGRPTTVV`
5.01

###

- tested on: HLA-A*02:03
- assay notes: IEDB peptide-MHC binding, purified MHC/competitive/fluorescence; filed as Kd, often an IC50 or EC50 that approximates it; bounds were set here for any values at or beyond the usual limits of such assays
- test context: source organism: Vibrio vulnificus YJ016
test readout: Kd (nM)
Output spec: scalar in nM, unitless text.

State its Kd: `YQRALHTSI`
2.1

###

- tested on: HLA-B*46:01
- assay notes: IEDB peptide-MHC binding, purified MHC/competitive/fluorescence; filed as Kd, often an IC50 or EC50 that approximates it; bounds were set here for any values at or beyond the usual limits of such assays
- test context: source organism: Staphylococcus aureus subsp. aureus N315
test readout: Kd

State its Kd: `VILNYIPVL`
≥ 20 µM

###

- tested on: HLA-A*01:01
- assay notes: IEDB peptide-MHC binding, purified MHC/competitive/radioactivity; filed as Kd, often an IC50 or EC50 that approximates it; bounds were set here for any values at or beyond the usual limits of such assays
- test context: source organism: Homo sapiens
test readout: Kd (µM)
Output spec: scalar in µM, unitless text.

State the measured Kd (HLA-A*01:01) of `YVDFREYEYD`
0.09
